Values were extracted from FireProtDB (doi:10.1016/0022-2836(82)90184-x).

B1: Tryptophan synthase alpha chain, P0A877 (parent)
chain: MERYESLFAQLKERKEGAFVPFVTLGDPGIEQSLKIIDTLIEAGADALELGIPFSDPLADGPTIQNATLRAFAAGVTPAQCFEMLALIRQKHPTIPIGLLMYANLVFNKGIDEFYAQCEKVGVDSVLVADVPVEESAPFRQAALRHNVAPIFICPPNADDDLLRQIASYGRGYTYLLSRAGVTGAENRAALPLNHLVAKLKEYNAAPPLQGFGISAPDQVKAAIDAGAAGAISGSAIVKIIEQHINEPEKMLAALKVFVQPMKAATRS

variants of: B1; details: Escherichia coli (strain K12); pH 7; 25 °C; GdnHCl; CD; Potassium phosphate 0.01 M; reversible: yes; structure 1WQ5; whole UniProt chain shown
Y means recorded ddG of mutation (higher = less stable) is 0 kcal/mol or above; N means it is below 0 kcal/mol.

>>> df
   change  group_label
0    E49S            Y
1    E49V            N
2    E49Q            Y
3    E49M            N
